- Test system: Staphylococcus aureus
- measurement_notes: Antibacterial activity against Staphylococcus aureus ATCC 25923 assessed as reduction in bacterial cell growth measured for 18 hrs by Mueller-Hinton broth based two-fold serial dilution method
- Format: functional
Square brackets hold non-standard residues; d marks the D form. Peptide text beside a SMILES is read from it. * marks the point of attachment. NMeR = CN[C@@H](CCCNC(=N)N)C(=O)O; NMeI = CC[C@H](C)[C@H](NC)C(=O)O; Tridecanoyl = CCCCCCCCCCCCC(=O)*; NMeL = CN[C@@H](CC(C)C)C(=O)O; Undecanoyl = CCCCCCCCCCC(=O)*; NMeK = CN[C@@H](CCCCN)C(=O)O; Nonanoyl = CCCCCCCCC(=O)*
readout_type: MIC (µM)

1) CCCCCCCCCCCCC(=O)NCC(=O)N[C@@H](CC(C)C)C(=O)N[C@@H](CC(C)C)C(=O)N[C@@H](CCCCN)C(=O)N(C)[C@@H](CCCNC(=N)N)C(=O)N[C@H](C(=O)N(C)[C@@H](CCCCN)C(=O)N[C@H](C(=O)N[C@@H](CC(C)C)C(=O)N[C@@H](CC(C)C)C(N)=O)[C@@H](C)O)[C@@H](C)CC (Tridecanoyl-GLLK[NMeR]I[NMeK]TLL-NH2) : 8
2) CCCCCCCCCCC(=O)NCC(=O)N[C@@H](CC(C)C)C(=O)N(C)[C@@H](CC(C)C)C(=O)N[C@@H](CCCCN)C(=O)N[C@@H](CCCNC(=N)N)C(=O)N(C)[C@H](C(=O)N[C@@H](CCCCN)C(=O)N[C@H](C(=O)N[C@@H](CC(C)C)C(=O)N[C@@H](CC(C)C)C(N)=O)[C@@H](C)O)[C@@H](C)CC (Undecanoyl-GL[NMeL]KR[NMeI]KTLL-NH2) : 16
3) CCCCCCCCC(=O)NCC(=O)N[C@@H](CC(C)C)C(=O)N[C@@H](CC(C)C)C(=O)N(C)[C@@H](CCCCN)C(=O)N[C@@H](CCCNC(=N)N)C(=O)N[C@H](C(=O)N(C)[C@@H](CCCCN)C(=O)N[C@H](C(=O)N[C@@H](CC(C)C)C(=O)N[C@@H](CC(C)C)C(N)=O)[C@@H](C)O)[C@@H](C)CC (Nonanoyl-GLL[NMeK]RI[NMeK]TLL-NH2) : 128

###

HC10 values by entry
- Test system: Erythrocyte
- measurement_notes: Hemolytic activity in human erythrocytes incubated for 1 hr by ELISA reader analysis
- Type: toxicity, cell-based
Square brackets hold non-standard residues; d marks the D form. Peptide text beside a SMILES is read from it. hLeu = CC(C)CC[C@H](N)C(=O)O; hSer = N[C@@H](CCO)C(=O)O; Nle = CCCC[C@H](N)C(=O)O; Dab = NCC[C@H](N)C(=O)O
readout_type: HC10

1) CC[C@H](C)[C@H](NC(=O)[C@H](CCCNC(=N)N)NC(=O)[C@H](CCN)NC(=O)[C@H](CC(C)C)NC(=O)[C@H](CC(C)C)NC(=O)CN)C(=O)N[C@@H](CCCCN)C(=O)N[C@H](C(=O)N[C@@H](CC(C)C)C(=O)N[C@@H](CC(C)C)C(N)=O)[C@@H](C)O (H-GLL[Dab]RIKTLL-NH2) : > 500 µM
2) CCCC[C@H](NC(=O)[C@H](CC(C)C)NC(=O)[C@@H](NC(=O)[C@H](CCCCN)NC(=O)[C@@H](NC(=O)[C@H](CCCNC(=N)N)NC(=O)[C@H](CCCCN)NC(=O)[C@H](CC(C)C)NC(=O)[C@H](CCCC)NC(=O)CN)[C@@H](C)CC)[C@@H](C)O)C(N)=O (H-G[Nle]LKRIKTL[Nle]-NH2) : > 500 µM
3) CC[C@H](C)[C@H](NC(=O)[C@H](CCCNC(=N)N)NC(=O)[C@H](CCCCN)NC(=O)[C@H](CCC(C)C)NC(=O)[C@H](CCC(C)C)NC(=O)CN)C(=O)N[C@@H](CCCCN)C(=O)N[C@H](C(=O)N[C@@H](CCC(C)C)C(=O)N[C@@H](CCC(C)C)C(N)=O)[C@@H](C)O (H-G[hLeu][hLeu]KRIKT[hLeu][hLeu]-NH2) : 125 µM
4) CC[C@H](C)[C@H](NC(=O)[C@H](CCCNC(=N)N)NC(=O)[C@H](CCCCN)NC(=O)[C@H](CC(C)C)NC(=O)[C@H](CCSC)NC(=O)CN)C(=O)N[C@@H](CCCCN)C(=O)N[C@H](C(=O)N[C@@H](CC(C)C)C(=O)N[C@@H](CC(C)C)C(N)=O)[C@@H](C)O (H-GMLKRIKTLL-NH2) : 400 µM
5) CC[C@H](C)[C@H](NC(=O)[C@H](CCCNC(=N)N)NC(=O)[C@H](CCCCN)NC(=O)[C@H](CCSC)NC(=O)[C@H](CC(C)C)NC(=O)CN)C(=O)N[C@@H](CCCCN)C(=O)N[C@H](C(=O)N[C@@H](CCSC)C(=O)N[C@@H](CC(C)C)C(N)=O)[C@@H](C)O (H-GLMKRIKTML-NH2) : > 500 µM
6) CC[C@H](C)[C@H](NC(=O)[C@H](CCCNC(=N)N)NC(=O)[C@H](CCO)NC(=O)[C@H](CC(C)C)NC(=O)[C@H](CC(C)C)NC(=O)CN)C(=O)N[C@@H](CCCCN)C(=O)N[C@H](C(=O)N[C@@H](CC(C)C)C(=O)N[C@@H](CC(C)C)C(N)=O)[C@@H](C)O (H-GLL[hSer]RIKTLL-NH2) : > 500 µM
7) CC[C@H](C)[C@H](NC(=O)[C@H](CCCNC(=N)N)NC(=O)[C@H](CCCCN)NC(=O)[C@@H](NC(=O)[C@@H](NC(=O)CN)C(C)C)C(C)C)C(=O)N[C@@H](CCCCN)C(=O)N[C@H](C(=O)N[C@H](C(=O)N[C@H](C(N)=O)C(C)C)C(C)C)[C@@H](C)O (H-GVVKRIKTVV-NH2) : > 500 µM
8) CC[C@H](C)[C@H](NC(=O)[C@H](CCCNC(=N)N)NC(=O)[C@H](CCCCN)NC(=O)[C@H](CC(C)C)NC(=O)[C@H](CCSC)NC(=O)CN)C(=O)N[C@@H](CCCCN)C(=O)N[C@H](C(=O)N[C@@H](CC(C)C)C(=O)N[C@@H](CCSC)C(N)=O)[C@@H](C)O (H-GMLKRIKTLM-NH2) : 500 µM
9) CC[C@H](C)[C@H](NC(=O)[C@H](CCCNC(=N)N)NC(=O)[C@H](CCCCN)NC(=O)[C@H](CC(C)C)NC(=O)[C@@H](NC(=O)CN)C(C)C)C(=O)N[C@@H](CCCCN)C(=O)N[C@H](C(=O)N[C@@H](CC(C)C)C(=O)N[C@H](C(N)=O)C(C)C)[C@@H](C)O (H-GVLKRIKTLV-NH2) : > 500 µM

###

- Tested on: Zymomonas mobilis
- measurement_notes: Antibacterial activity against Zymomonas mobilis ATCC 10988 assessed as bacterial growth inhibition
- Format: functional
Peptide text beside a SMILES is read from it. * marks the point of attachment. Undecanoyl = CCCCCCCCCCC(=O)*
MIC values by entry
readout_type: MIC

1. CCCCCCCCCCC(=O)NCC(=O)N[C@@H](CC(C)C)C(=O)N[C@@H](CC(C)C)C(=O)N[C@@H](CCCCN)C(=O)N[C@@H](CCCCN)C(=O)N[C@H](C(=O)N[C@@H](CCCCN)C(=O)N[C@@H](CCCNC(=N)N)C(=O)N[C@@H](CC(C)C)C(=O)N[C@@H](CC(C)C)C(N)=O)[C@@H](C)CC (Undecanoyl-GLLKKIKRLL-NH2) : 4.3 µM
2. CCCCCCCCCCC(=O)NCC(=O)N[C@@H](CC(C)C)C(=O)N[C@@H](CC(C)C)C(=O)N[C@@H](CCCCN)C(=O)N[C@H](C(=O)N[C@H](C(=O)N[C@@H](CCCCN)C(=O)N[C@@H](CCCNC(=N)N)C(=O)N[C@@H](CC(C)C)C(=O)N[C@@H](CC(C)C)C(N)=O)[C@@H](C)CC)[C@@H](C)CC (Undecanoyl-GLLKIIKRLL-NH2) : 12.5 µM

###

MIC values by entry
- Tested on: Klebsiella pneumoniae
- measurement_notes: Antimicrobial activity against Klebsiella pneumoniae ATCC 700603 assessed as reduction in microbial growth incubated for 18 hrs by Mueller-Hinton Broth based microdilution assay
- Type: functional
Square brackets hold non-standard residues; d marks the D form. Peptide text beside a SMILES is read from it. NMeR = CN[C@@H](CCCNC(=N)N)C(=O)O; NMeL = CN[C@@H](CC(C)C)C(=O)O; NMeK = CN[C@@H](CCCCN)C(=O)O
readout_type: MIC

1) CC[C@H](C)[C@H](NC(=O)[C@H](CCCNC(=N)N)NC(=O)[C@H](CCCCN)NC(=O)[C@H](CC(C)C)NC(=O)[C@H](CC(C)C)NC(=O)CN)C(=O)N[C@@H](CCCCN)C(=O)N[C@H](C(=O)N[C@@H](CC(C)C)C(=O)N(C)[C@@H](CC(C)C)C(N)=O)[C@@H](C)O (H-GLLKRIKTL[NMeL]-NH2) : > 128 µM
2) CC[C@H](C)[C@H](NC(=O)[C@H](CCCNC(=N)N)N(C)C(=O)[C@H](CCCCN)N(C)C(=O)[C@H](CC(C)C)NC(=O)[C@H](CC(C)C)NC(=O)CN)C(=O)N[C@@H](CCCCN)C(=O)N[C@H](C(=O)N[C@@H](CC(C)C)C(=O)N[C@@H](CC(C)C)C(N)=O)[C@@H](C)O (H-GLL[NMeK][NMeR]IKTLL-NH2) : > 128 µM
3) CC[C@H](C)[C@H](NC(=O)[C@H](CCCNC(=N)N)NC(=O)[C@H](CCCCN)N(C)C(=O)[C@H](CC(C)C)NC(=O)[C@H](CC(C)C)NC(=O)CN)C(=O)N[C@@H](CCCCN)C(=O)N[C@H](C(=O)N[C@@H](CC(C)C)C(=O)N[C@@H](CC(C)C)C(N)=O)[C@@H](C)O (H-GLL[NMeK]RIKTLL-NH2) : > 128 µM

Provenance of the data: ChEMBL document CHEMBL5608163
